Tested on: Streptococcus salivarius
Test: growth AUC relative to DMSO control (median of replicates) (fraction); higher = more growth (less inhibition), active = hit call of the paper;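 active = AUC reduced over 20% with Padj below 0.05 in at least 2 of 3 replicates; inactive = otherwise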
Conditions: 20 µM; 24 h
A correct response names exactly one class from active, inactive

compound | group
Cc1cccc(C)c1N(CC(=O)O)C(=O)CS(=O)(=O)[O-].[Na+] | inactive
CCCCOCCOC(=O)COc1nc(Cl)c(Cl)cc1Cl | inactive
O=C=NC1CCC(CC2CCC(N=C=O)CC2)CC1 (configuration not stated) | inactive
COC(=O)c1ccc(C(F)(F)F)nc1S(=O)(=O)[N-]C(=O)Nc1nc(OC)cc(OC)n1.[Na+] | inactive
CC(CNC(=S)[S-])NC(=S)[S-].[Zn+2] (mixture of isomers) | inactive

Q) Called result for C=O
A) inactive

Q) What about this compound? CC(C)OC(=O)[C@@H](C)N(C(=O)c1ccccc1)c1ccc(F)c(Cl)c1
A) inactive

Q) What about this compound? COc1nc(OC)nc(C(=O)c2cccc(F)c2N(C)S(=O)(=O)C(F)F)n1
A) inactive

====

System: Lactobacillus gasseri
Test: growth AUC relative to DMSO control (median of replicates) (fraction); higher = more growth (less inhibition), active = hit call of the paper
Settings: 20 µM; 24 h
Examples of compounds with documented growth AUC follow.

Q) Consider the compound CCc1cccc(C)c1N(COC(C)C)C(=O)CCl and give its measured growth AUC.
A) 0.99 (inactive)

Q) What about this compound? CC(C)(c1ccc(O)cc1)c1ccc(O)cc1
A) 1 (inactive)

Q) What about this compound? CCOC(=O)[C@@H](C)Oc1ccc(Oc2nc3ccc(Cl)cc3o2)cc1
A) 0.991 (inactive)

====

System: Clostridium difficile
Assay: growth AUC relative to DMSO control (median of replicates) (fraction); higher = more growth (less inhibition), active = hit call of the paper
Settings: 20 µM; 24 h
Examples of compounds with documented growth AUC follow.
Please give the numeric answer without any surrounding text.

compound | readout-name | value-reported
CNC(=O)/C(=N/OC)c1ccccc1COc1cc(C(=O)O)ccc1C | growth AUC | 0.991
CC1=C(c2ccccc2)C(=O)N(C(C)(C)c2cc(Cl)cc(Cl)c2)CO1 | growth AUC | 1.02
NC(=O)Cc1cccc2ccccc12 | growth AUC | 1.01
Oc1cccc2ccccc12 | growth AUC | 0.98
CCc1cc(C(=O)O)cc(CC)c1C1C(=O)N2CCOCCN2C1=O | growth AUC | 0.976
CCOC(=O)[C@@H](C)Oc1ccc(Oc2cnc3cc(Cl)ccc3n2)cc1 | growth AUC | 1.01
CC1(C)C(=O)Oc2ccc(OS(C)(=O)=O)cc21 | growth AUC | 0.99
c1ccc2[nH]c(-c3cscn3)nc2c1 | growth AUC | 0.985
CCc1cccc(C)c1NC(=O)C(=O)O | growth AUC | 0.972
O=C(O)c1cccc2nnsc12 | growth AUC | 0.99

Q) Consider the compound CN(C)C(=O)Nc1cc(C(C)(C)C)on1 and give its measured growth AUC.
A) 0.987

Q) What about this compound? CNC(=O)/C(=N/OC)c1ccccc1CO/N=C(C)/C(=N/OC)C(/C)=N/OC
A) 0.979

====

Test system: Bacteroides uniformis
Assay: growth AUC relative to DMSO control (median of replicates) (fraction); higher = more growth (less inhibition), active = hit call of the paper
Details: 20 µM; 24 h
readout-name: growth AUC
Please give the numeric answer without any surrounding text.

Here are 4 molecules together with their reported answers.
molecule | growth AUC
O=[N+]([O-])c1ccc(O)cc1 | 1.01
Cc1cccc(C)c1N(C(=O)CCl)C1CCOC1=O (stereo unspecified) | 0.894
COCC(=O)N(c1c(C)cccc1C(=O)O)C(C)C(=O)O (stereo unspecified) | 0.974
c1ccc2[nH]c(-c3cscn3)nc2c1 | 1.02

Q) Consider the molecule CCCCCCC(C)OC(=O)COc1nc(F)c(Cl)c(N)c1Cl (stereo unspecified) and give its measured growth AUC.
A) 0.874

Q) What about this molecule? Cn1cc(C(=O)Nc2ccccc2-c2cc(F)c(F)c(F)c2)c(C(F)F)n1
A) 0.984

Q) What about this molecule? N#Cc1c(N)nc(NC2CC2)nc1N
A) 0.987

Q) What about this molecule? CN(C)c1ccc(N=NS(=O)(=O)[O-])cc1.[Na+]
A) 0.98

Q) What about this molecule? COC1CCC2(CC1)NC(=O)C(O)(c1cc(C)ccc1C)C2=O (stereo unspecified)
A) 1.02

Q) What about this molecule? CCCCOC(=O)C(C)Oc1ccc(Oc2ccc(C(F)(F)F)cn2)cc1 (stereo unspecified)
A) 0.891

Q) What about this molecule? CON(C(=O)c1cc(C)oc1C)C1CCCCC1
A) 0.997

Q) What about this molecule? c1ccc(Nc2ccccc2)cc1
A) 0.981

Q) What about this molecule? CC(C)c1cccc2c(=O)c3ccccc3sc12
A) 0.995
